target_desc: BRD4-2 (Homo sapiens, UniProt O60885)
method: Bromodomain and Extraterminal Domain (BET) binding assay (Alpha, Reaction Biology Corp.), BRD4-2
details: protein 130 nM, ligand histone H4 peptide (1-21) K5/8/12/16Ac-biotin 70 nM
experimental_endpoint: IC50 (nM)
Report the figure in nM without appending any unit label.

compound	target_desc	result_value
CCNC(=O)c1cc2c(=O)n(C)cc(-c3cc(NS(=O)(=O)CC)ccc3Oc3ccc(F)cc3F)c2o1 [Compound 65]	BRD4-2 (Homo sapiens, UniProt O60885)	3

Continue with the next compound.
Form entry - test system: BRD4-2 (Homo sapiens, UniProt O60885); read-out: IC50; compound: CCNC(=O)c1cc2c(=O)n(C)cc(-c3cc(C(C)(C)O)ccc3Oc3c(C)cc(F)cc3C)c2o1 [Compound 1]
0.7
